# System: P-gp and MRP2
# protocol: Inhibition transport study: GM with ciclosporin (P-gp and MRP2 inhibitor) across Caco-2 cells monolayer
# Type: in vitro ADME, Human
# test-parameters: human, Caco-2; GM + ciclosporin (10 μmol); apical-to-basolateral; mean ± SEM, n = 3
Catalogue of Papp A→B values
measurement-type: Papp A→B

compound: C=CC12CN(C)C3C4COC(CC41)C1(C(=O)N(OC)c4ccccc41)C32 (stereo not shown)
reported-measurement: 464 ×10⁻⁶ cm/s
//
compound: C=C[C@@]12CN(C)[C@H]3C[C@]14C(=Nc1ccccc14)[C@H]1C[C@@H]2[C@@H]3CO1
reported-measurement: 440 ×10⁻⁶ cm/s
//
compound: CCC1=NC2CC3(C(=O)N(OC)c4ccccc43)C3OCC2C1C3O (stereo not shown)
reported-measurement: 4.48 ×10⁻⁶ cm/s
//
compound: C/C=C1\CN(C)[C@H]2C[C@@]3(C(=O)N(OC)c4ccccc43)[C@H]3C[C@@H]1[C@@H]2CO3
reported-measurement: 515 ×10⁻⁶ cm/s

* * *

# protocol: Bidirectional transport of indole alkaloids from GE and GM extracts across Caco-2 cells monolayer
# Format: in vitro ADME, Human
# test-parameters: human, Caco-2, GM without inhibitor; read-out: efflux ratio γ (Papp BL-AP / Papp AP-BL)
# Experimental: Human colon adenocarcinoma cell lines (Caco-2) were obtained from the cell bank of Chinese Academy of Sciences (Beijing, China). […] Transport studies were conducted in the absorptive direction (apical- (AP-) basolateral (BL)) and the efflux direction (BL-AP), separately. […] At the end of the transport experiment, integrity of the monolayer was monitored by TEER value. […] The efflux ratio (γ) was calculated with the following equation:(4) γ=PappBL-AP/PappAP-BL.

smiles-text: C=C[C@]12CN(C)[C@@H]3[C@H]4CO[C@H](C[C@H]41)[C@]1(C(=O)Nc4ccccc41)[C@@H]32
efflux ratio at 4 h: ~1
--
smiles-text: CCC1=N[C@H]2C[C@@]3(C(=O)N(OC)c4ccccc43)[C@H]3C[C@@H]1[C@@H]2CO3
efflux ratio at 4 h: > 2

* * *

# system: P-gp (Homo sapiens)
# Construct: endogenous in cells; host or cells: Caco-2 cells (cell bank of Chinese Academy of Sciences)
# protocol: Inhibition transport study: GM with verapamil (P-gp inhibitor) across Caco-2 cells monolayer
# Type: in vitro ADME
# test-parameters: GM + verapamil compared with GM
measurement-type: decrease of efflux ratio γ (%)

compound: C/C=C1\CN(C)[C@H]2C[C@@]3(C(=O)N(OC)c4ccccc43)[C@H]3C[C@@H]1[C@@H]2CO3
reported-measurement: 8.90
--
compound: C=CC12CN(C)C3C4COC(CC41)C1(C(=O)N(OC)c4ccccc41)C32 (stereo not shown)
reported-measurement: 36.00
--
compound: CCC1=NC2CC3(C(=O)N(OC)c4ccccc43)C3OCC2C1C3O (stereo not shown)
reported-measurement: 43.69
--
compound: CCC1=N[C@H]2C[C@@]3(C(=O)N(OC)c4ccccc43)[C@H]3C[C@@H]1[C@@H]2CO3
reported-measurement: 41.42

* * *

# protocol: Bidirectional transport of indole alkaloids from GE and GM extracts across Caco-2 cells monolayer
# Assay type: in vitro ADME, Human
# test-parameters: human, Caco-2; GM (control group); apical-to-basolateral; mean ± SEM, n = 3
# Lookup of reported Papp A→B keyed by entry

compound: CCC1=NC2CC3(C(=O)N(OC)c4ccccc43)C3OCC2C1C3O (stereo not shown)
Papp A→B, ×10⁻⁶ cm/s: 0.14
--
compound: C=C[C@@]12CN(C)[C@H]3C[C@]14C(=Nc1ccccc14)[C@H]1C[C@@H]2[C@@H]3CO1
Papp A→B, ×10⁻⁶ cm/s: 11.8
--
compound: C/C=C1\CN(C)[C@H]2C[C@@]3(C(=O)N(OC)c4ccccc43)[C@H]3C[C@@H]1[C@@H]2CO3
Papp A→B, ×10⁻⁶ cm/s: 6.93
--
compound: C=CC12CN(C)C3C4COC(CC41)C1(C(=O)N(OC)c4ccccc41)C32 (stereo not shown)
Papp A→B, ×10⁻⁶ cm/s: 6.33

* * *

# protocol: Bidirectional transport of indole alkaloids from GE and GM extracts across Caco-2 cells monolayer
# Type: in vitro ADME, Human
# test-parameters: human, Caco-2; GM (control group); basolateral-to-apical; mean ± SEM, n = 3
Let's look at some molecules and their measured Papp B→A.

molecule: C/C=C1\CN(C)[C@H]2C[C@@]3(C(=O)N(OC)c4ccccc43)[C@H]3C[C@@H]1[C@@H]2CO3
value-units: nm/s
Papp B→A: 98.7
//
molecule: C=CC12CN(C)C3C4COC(CC41)C1(C(=O)N(OC)c4ccccc41)C32 (stereo not shown)
value-units: nm/s
Papp B→A: 127
//
molecule: C=C[C@@]12CN(C)[C@H]3C[C@]14C(=Nc1ccccc14)[C@H]1C[C@@H]2[C@@H]3CO1
value-units: nm/s
Papp B→A: 134
//
molecule: CCC1=NC2CC3(C(=O)N(OC)c4ccccc43)C3OCC2C1C3O (stereo not shown)
value-units: nm/s
Papp B→A: 4.1

* * *

# system: P-gp (Homo sapiens, UniProt P08183)
# Construct: endogenous in cells; host or cells: Caco-2 cells (cell bank of Chinese Academy of Sciences)
# Sequence (P08183 whole entry): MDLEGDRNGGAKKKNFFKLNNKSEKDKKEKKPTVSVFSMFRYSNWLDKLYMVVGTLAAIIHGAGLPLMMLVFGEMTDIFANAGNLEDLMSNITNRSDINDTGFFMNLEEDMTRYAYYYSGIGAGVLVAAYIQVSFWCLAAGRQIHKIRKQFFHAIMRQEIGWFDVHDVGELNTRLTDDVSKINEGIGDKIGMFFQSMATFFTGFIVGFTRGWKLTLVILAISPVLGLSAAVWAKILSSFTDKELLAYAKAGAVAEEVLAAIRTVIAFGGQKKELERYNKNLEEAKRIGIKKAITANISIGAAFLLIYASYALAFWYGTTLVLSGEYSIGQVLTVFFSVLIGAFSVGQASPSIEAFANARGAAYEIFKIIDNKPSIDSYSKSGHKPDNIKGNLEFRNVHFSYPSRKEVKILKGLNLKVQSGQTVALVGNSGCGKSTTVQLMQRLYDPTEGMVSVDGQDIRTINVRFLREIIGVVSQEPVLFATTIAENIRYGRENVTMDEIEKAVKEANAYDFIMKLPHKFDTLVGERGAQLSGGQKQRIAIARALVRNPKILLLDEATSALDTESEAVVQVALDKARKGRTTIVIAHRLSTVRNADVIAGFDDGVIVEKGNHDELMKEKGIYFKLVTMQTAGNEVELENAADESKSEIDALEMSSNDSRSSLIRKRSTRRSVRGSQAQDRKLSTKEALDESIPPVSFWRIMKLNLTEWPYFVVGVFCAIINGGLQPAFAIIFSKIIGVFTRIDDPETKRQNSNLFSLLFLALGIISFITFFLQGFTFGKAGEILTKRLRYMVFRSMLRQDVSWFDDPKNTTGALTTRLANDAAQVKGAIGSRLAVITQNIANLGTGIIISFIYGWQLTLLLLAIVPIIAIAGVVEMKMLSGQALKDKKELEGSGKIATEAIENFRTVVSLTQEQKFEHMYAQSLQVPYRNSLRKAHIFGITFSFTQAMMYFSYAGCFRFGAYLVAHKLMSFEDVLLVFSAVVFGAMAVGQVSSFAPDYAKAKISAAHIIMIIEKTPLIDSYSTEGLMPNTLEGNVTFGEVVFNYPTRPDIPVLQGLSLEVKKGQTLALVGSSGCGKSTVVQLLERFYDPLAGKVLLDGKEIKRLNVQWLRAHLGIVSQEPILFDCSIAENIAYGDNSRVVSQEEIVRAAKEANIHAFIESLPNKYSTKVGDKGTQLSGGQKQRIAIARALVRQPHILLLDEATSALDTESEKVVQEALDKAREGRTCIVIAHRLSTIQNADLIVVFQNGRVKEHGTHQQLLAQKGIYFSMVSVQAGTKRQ
# protocol: Inhibition transport study: GM with verapamil (P-gp inhibitor) across Caco-2 cells monolayer
# Format: in vitro ADME
# test-parameters: human, Caco-2; GM + verapamil (50 μmol); apical-to-basolateral; mean ± SEM, n = 3

compound: CCC1=NC2CC3(C(=O)N(OC)c4ccccc43)C3OCC2C1C3O (stereo not shown) [Humantenidine, humantenidine]
value-units: ×10⁻⁶ cm/s
Papp A→B: 3.14
//
compound: C=C[C@@]12CN(C)[C@H]3C[C@]14C(=Nc1ccccc14)[C@H]1C[C@@H]2[C@@H]3CO1 [Koumine, koumine]
value-units: ×10⁻⁶ cm/s
Papp A→B: 348
//
compound: C=CC12CN(C)C3C4COC(CC41)C1(C(=O)N(OC)c4ccccc41)C32 (stereo not shown) [Gelsevirine, gelsevirine]
value-units: ×10⁻⁶ cm/s
Papp A→B: 392
//
compound: C/C=C1\CN(C)[C@H]2C[C@@]3(C(=O)N(OC)c4ccccc43)[C@H]3C[C@@H]1[C@@H]2CO3 [Humantenine, humantenine]
value-units: ×10⁻⁶ cm/s
Papp A→B: 437

* * *

# Tested on: P-gp and MRP2
# protocol: Inhibition transport study: GM with ciclosporin (P-gp and MRP2 inhibitor) across Caco-2 cells monolayer
# Format: in vitro ADME, Human
# test-parameters: GM + ciclosporin compared with GM
decrease of efflux ratio γ by entry:

compound: C=CC12CN(C)C3C4COC(CC41)C1(C(=O)N(OC)c4ccccc41)C32 (stereo not shown) [Gelsevirine, gelsevirine]
system: P-gp and MRP2
decrease of efflux ratio γ: 34.00%
//
compound: CCC1=N[C@H]2C[C@@]3(C(=O)N(OC)c4ccccc43)[C@H]3C[C@@H]1[C@@H]2CO3 [Gelsenicine, gelsenicine]
system: P-gp and MRP2
decrease of efflux ratio γ: 40.59%
//
compound: CCC1=NC2CC3(C(=O)N(OC)c4ccccc43)C3OCC2C1C3O (stereo not shown) [Humantenidine, humantenidine]
system: P-gp and MRP2
decrease of efflux ratio γ: 42.32%
//
compound: C/C=C1\CN(C)[C@H]2C[C@@]3(C(=O)N(OC)c4ccccc43)[C@H]3C[C@@H]1[C@@H]2CO3 [Humantenine, humantenine]
system: P-gp and MRP2
decrease of efflux ratio γ: 15.07%

* * *

# system: P-gp (Homo sapiens)
# Construct: endogenous in cells; host or cells: Caco-2 cells (cell bank of Chinese Academy of Sciences)
# protocol: Inhibition transport study: GM with verapamil (P-gp inhibitor) across Caco-2 cells monolayer
# Type: in vitro ADME
# test-parameters: human, Caco-2; GM + verapamil (50 μmol); apical-to-basolateral; mean ± SEM, n = 3
measurement-type: Papp A→B at 4 h (×10⁻⁶ cm/s)

smiles-text: CCC1=N[C@H]2C[C@@]3(C(=O)N(OC)c4ccccc43)[C@H]3C[C@@H]1[C@@H]2CO3
system: P-gp (Homo sapiens)
measurement-type: Papp A→B at 4 h
reported-measurement: 86.6
//
smiles-text: C=C[C@]12CN(C)[C@@H]3[C@H]4CO[C@H](C[C@H]41)[C@]1(C(=O)Nc4ccccc41)[C@@H]32
system: P-gp (Homo sapiens)
measurement-type: Papp A→B at 4 h
reported-measurement: 30.3
